target: Homeobox protein Hox-A13 (Mus musculus) (UniProt Q62424); assay: inhibitors of HoxA13-DNA binding, primary screen, biochemical, fluorescence polarization, labeled oligonucleotide (AID 1185); conditions: 15 min, higher = more signal, called active from +8 up or from −8 down
Sequence (Q62424 whole entry, looked up): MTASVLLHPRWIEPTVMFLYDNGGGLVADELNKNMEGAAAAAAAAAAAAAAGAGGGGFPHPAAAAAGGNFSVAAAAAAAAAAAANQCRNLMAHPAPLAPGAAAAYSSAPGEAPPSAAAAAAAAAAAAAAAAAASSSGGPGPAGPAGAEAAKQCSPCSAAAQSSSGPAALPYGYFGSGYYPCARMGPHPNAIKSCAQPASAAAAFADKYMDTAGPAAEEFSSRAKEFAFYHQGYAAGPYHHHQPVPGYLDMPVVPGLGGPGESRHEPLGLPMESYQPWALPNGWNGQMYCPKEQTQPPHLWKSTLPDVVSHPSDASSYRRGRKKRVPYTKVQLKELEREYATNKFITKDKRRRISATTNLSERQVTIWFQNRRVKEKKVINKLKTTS
property name: z-score
Returns: the value as a bare number; no unit string appended.

O=C1C2C=CC(C(O)Cc3ccccc3)N(n3cnnc3)C2C(=O)N1Cc1ccccc1 (stereo not drawn)	-3.18

Item: COc1cc2c(cc1OC)CN(C(=O)[C@@H]1[C@H]3C(=O)O[C@H](c4ccccc4)[C@H](c4ccccc4)N3[C@H](c3ccc(O)cc3)[C@@]13C(=O)Nc1ccccc13)CC2 Test system: Homeobox protein Hox-A13 (Mus musculus) (UniProt Q62424) Read-out: z-score Value: ?
-2.32

Item: CC(C)N1C(=O)[C@@]2(Cc3ccccc31)c1ccccc1C(=O)N(Cc1ccccc1Cl)[C@H]2c1ccc(CO)cc1 Test system: Homeobox protein Hox-A13 (Mus musculus) (UniProt Q62424) Read-out: z-score Value: ?
-0.978

---

Consider the following compounds and their measured z-score readings.
biological target: NADPH oxidase 5 (Homo sapiens) (UniProt Q96PH1); test: NOX5-dependent H2O2 signal modulators, primary screen, NOX inhibitor project, cell-based, HEK293-NOX5, Amplex Red fluorescence (AID 1161); settings: HEK293-NOX5, ionomycin, 45 min, higher = more signal
Sequence (Q96PH1 whole entry, looked up): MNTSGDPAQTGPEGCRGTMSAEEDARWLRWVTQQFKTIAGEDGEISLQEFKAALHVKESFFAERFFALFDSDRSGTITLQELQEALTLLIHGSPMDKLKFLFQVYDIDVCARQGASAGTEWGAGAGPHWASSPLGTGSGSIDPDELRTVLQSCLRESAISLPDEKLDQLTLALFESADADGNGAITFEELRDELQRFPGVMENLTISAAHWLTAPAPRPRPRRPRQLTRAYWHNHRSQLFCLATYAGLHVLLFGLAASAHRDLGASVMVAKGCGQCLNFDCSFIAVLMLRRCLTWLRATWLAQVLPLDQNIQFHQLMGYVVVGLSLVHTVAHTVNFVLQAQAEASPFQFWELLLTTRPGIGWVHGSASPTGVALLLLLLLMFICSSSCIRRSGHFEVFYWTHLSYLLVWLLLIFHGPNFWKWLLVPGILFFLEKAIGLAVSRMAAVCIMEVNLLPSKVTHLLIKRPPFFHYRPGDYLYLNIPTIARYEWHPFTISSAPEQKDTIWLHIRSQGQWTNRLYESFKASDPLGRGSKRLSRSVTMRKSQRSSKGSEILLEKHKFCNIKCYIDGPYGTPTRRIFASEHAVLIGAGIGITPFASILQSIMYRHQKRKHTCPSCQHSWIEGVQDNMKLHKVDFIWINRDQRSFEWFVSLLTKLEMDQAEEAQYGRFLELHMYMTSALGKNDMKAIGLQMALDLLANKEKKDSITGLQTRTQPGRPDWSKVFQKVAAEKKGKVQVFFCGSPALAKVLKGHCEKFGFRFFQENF

C=C[C@@H](COC(=O)OC(C)(C)C)N(Cc1ccc(OC)cc1)S(=O)(=O)c1ccc(Br)cc1	-1.28
COc1ccc([Si](C)(C)[C@H]2[C@H](CC(=O)N3Cc4ccccc4C[C@H]3CO)O[C@@]3(C(=O)N(Cc4cccc(N5CCC5=O)c4)c4ccccc43)[C@@H]2C)cc1	-1.44
CNS(=O)(=O)c1ccc(C)cc1	0.669

Pending compound:
Given the compound CCOC(=O)C1=CC[C@@H](c2ccccc2)N(S(=O)(=O)c2ccc(C)cc2)[C@H]1c1ccccc1C , what is its reported z-score?
0.963

---

experiment: A549 lung cancer cell viability effects, profiling panel, resazurin fluorescence, 24 h, PK04 Diversity Set (AID 1171); conditions: higher = more signal, called active from +8 up or from −8 down; also: test concentration not given here
property name: z-score
Returns: the value as a bare number; no unit string appended.

Solved cases below.
CCS[C@H]1[C@@H](C(=O)O)[C@H](c2ccc(C)cc2)N(S(=O)(=O)c2ccc(C)cc2)[C@@H]1CC	-0.545
CCCCCN1CC=CC23O[C@@H]4C=CCCOC(=O)C4[C@H]2C(=O)N(CCCCCO)[C@@H]3C1=O (stereo not given in full)	0.26
Cc1ccccc1C(O)C1C=CC2C(=O)N(c3ccccc3)C(=O)C2N1Nc1ccc(C(C)C)cc1 (stereo not given)	-1.41

Given the compound CC(C)N1C(=O)[C@@]2(Cc3ccccc31)c1ccccc1C(=O)N(Cc1ccccc1Cl)[C@H]2c1ccc(CO)cc1 , what is its reported z-score?
0.458

Given the compound COC(=O)[C@@]1(Cc2ccc(F)cc2)[C@H]2c3cc(C(=O)N4CCCC4)n(Cc4ccc(S(C)(=O)=O)cc4)c3C[C@H]2CN1C(=O)c1ccccc1 , what is its reported z-score?
0.039

---

experiment: small-molecule microarray binders of probe aWnt5a, primary screen, biochemical, biotinylated probe, 635/667 nm fluorescence (AID 1113); details: higher = more signal;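 also: score merges 667 nm fluorescence intensity with signal-to-noise per printed feature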
Consider the following molecules and their measured composite z-score readings.

Solved cases below.
[N-]=[N+]=Nc1ccccc1[C@H]1OC(c2ccc(OCCCO)cc2)=N[C@@]1(CCS(=O)(=O)c1ccccc1)C(N)=O	0.161
NC(=O)N1C(=O)C2C(C1=O)C1C=C(c3ccc(CO)cc3)C2C(c2cccs2)N1Cc1cccc(OC(F)(F)F)c1 (centres undefined)	0.0573
CCCC[C@H]1OB(O)C[C@H]2C1=C(COC)C[C@H]1C(=O)N(C)C(=O)[C@H]12	-0.152

Pending molecule:
Given the molecule NC(=O)NCC#Cc1ccc2c(c1)[C@]1(C(=O)N2)[C@H](C(=O)Nc2nc3ccccc3s2)[C@H]2C(=O)O[C@H](c3ccccc3)[C@H](c3ccccc3)N2[C@@H]1c1ccccc1OCCO , what is its reported composite z-score?
0.312
